Target: T1, Cynomolgus CD3εδ Fc heterodimer (Cy CD3ε Fc / CD3δ Fc-HIS) (cynomolgus, UniProt Q95LI8 22-100)
T1 chain 1: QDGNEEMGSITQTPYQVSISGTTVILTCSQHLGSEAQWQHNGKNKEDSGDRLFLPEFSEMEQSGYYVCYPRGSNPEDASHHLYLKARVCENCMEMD
T1 chain 2: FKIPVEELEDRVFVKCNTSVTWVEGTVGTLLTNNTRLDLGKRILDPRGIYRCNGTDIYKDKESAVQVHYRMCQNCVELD
Assay: BLI (Octet), IgG on AHC sensor, pH 6.0
We use 0.02 s⁻¹ as the dividing line for koff: on or above the line is 1, below is -1.

| Binder | Group Label |
| --- | --- |
| SAD10320_P01_D03 (ADI-57356) (antibody, V domains shown, IgG; also called Ab63) VH: QVQLVQSGAEVKKPGASVKVSCKASGFDIKDYYMHWVRQAPGQRLEWMGWIDLENANTIYDAKFQGRVTITRDTSASTAYMELSSLRSEDTAVYYCARDAYGHAFYDVWGQGTLVTVSS VL: DIVMTQSPDSLAVSLGERATINCKSSQSLLNARTGKNYLAWYQQKPGQPPKLLIYWASTRESGVPDRFSGSGSGTDFTLTISSLQAEDVAVYYCKQSYHGRTFGGGTKVEIK | -1 |
| SAD10319_P06_C12 (ADI-57424) (antibody, V domains shown, IgG; also called Ab153) VH: QVQLVQSGAEVKKPGASVKVSCKASGYTFDSYEMHWVRQAPGHRLEWMGWINPLTGATKYSQKFQGRVTITRDTSASTAYMELSSLRSEDTAVYYCARDHYGHYFYDVWGQGTLVTVSS VL: DIVMTQSPDSLAVSLGERATINCKSSQSLLNARTGKNYLAWYQQKPGQPPKLLIYWASTRESGVPDRFSGSGSGTDFTLTISSLQAEDVAVYYCKQSYSRRTFGGGTKVEIK | -1 |
| SAD10319_P05_C03 (ADI-57404) (antibody, V domains shown, IgG; also called Ab131) VH: QVQLVQSGAEVKKPGASVKVSCKASGYTFTSYNMHWVRQAPGQRLEWMGSIDAGTGATDYSQKFQGRVTITRDTSASTAYMELSSLRSEDTAVYYCARDAYHHYFYDVWGQGTLVTVSS VL: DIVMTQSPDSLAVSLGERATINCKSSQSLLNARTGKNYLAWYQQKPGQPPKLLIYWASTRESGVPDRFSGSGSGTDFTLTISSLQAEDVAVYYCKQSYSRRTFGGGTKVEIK | -1 |

Consider the record given below.
Is koff for SAD10319_P02_E04 (ADI-57311) (antibody, V domains shown, IgG; also called Ab252) VH: QVQLVQSGAEVKKPGASVKVSCKASGYTFESYYMHWVRQAPGQRLERMGSIVAGTGATKYSQKFQGRVTITRDTSASTAYMELSSLRSEDTAVYYCARDHYGRYFYDVWGQGTPVTVSS VL: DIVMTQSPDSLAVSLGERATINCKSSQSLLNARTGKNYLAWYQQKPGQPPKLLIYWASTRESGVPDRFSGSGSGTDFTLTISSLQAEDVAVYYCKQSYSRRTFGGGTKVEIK at or above 0.02 s⁻¹?
1
